Tested on: BT474 cells (HER2 positive breast cancer cells)
protocolSummary: Cell viability assay (CCK8), BT474 cells
Type: cell-based
conditionSet: Homo sapiens, BT-474, Table 10, BT474, 72 hours, read-out: IC50 (half inhibitory concentration)
pIC50: −log10 of the molar value.
Lab note: anything with pIC50 at or over 8 counts as Met; the rest go in Not met.

compound | class
C=CC(=O)Nc1cc2c(Nc3ccc(F)c(Cl)c3)ncnc2cc1OCCCN1CCN(CCCCCCNc2cccc3c2C(=O)N(C2CCC(=O)NC2=O)C3=O)CC1 (stereo not shown) | Met

QUERY: Item COc1cc2ncnc(Nc3ccc(Cl)c(Cl)c3F)c2cc1OC1CCN(C(=O)CCSc2cccc3c2C(=O)N(C2CCC(=O)NC2=O)C3=O)CC1 (stereo not shown) with pIC50 of 8 or above?
RESULT: Not met

QUERY: Item COc1cc2ncnc(Nc3ccc(F)c(Cl)c3)c2cc1NC(=O)/C=C/CN1CCC(N2CCN(C(=O)CCCCCSc3cccc4c3CN(C3CCC(=O)NC3=O)C4=O)CC2)CC1 (stereo not shown) with pIC50 of 8 or above?
RESULT: Met

QUERY: Item COc1cc2ncnc(Nc3ccc(F)c(Cl)c3)c2cc1NC(=O)/C=C/CN1CCC(NC(=O)CCCCCCSc2cccc3c2CN(C2CCC(=O)NC2=O)C3=O)CC1 (stereo not shown) with pIC50 of 8 or above?
RESULT: Not met

QUERY: Item COc1cc2ncnc(Nc3ccc(Cl)c(Cl)c3F)c2cc1OC1CCNCC1 [Poziotinib derivative A (SIAIS219149)] with pIC50 of 8 or above?
RESULT: Not met

QUERY: Item C=CC(=O)Nc1cc2c(Nc3ccc(F)c(Cl)c3)ncnc2cc1OCCCN1CCC(N2CCN(C(=O)CSc3cccc4c3CN(C3CCC(=O)NC3=O)C4=O)CC2)CC1 (stereo not shown) with pIC50 of 8 or above?
RESULT: Not met

QUERY: Item C=CC(=O)Nc1cc2c(Nc3ccc(F)c(Cl)c3)ncnc2cc1OCCCN1CCN(C(=O)CCc2ccc(CCC(=O)N[C@H](C(=O)N3C[C@H](O)C[C@H]3C(=O)NCc3ccc(-c4scnc4C)cc3)C(C)(C)C)cc2)CC1 with pIC50 of 8 or above?
RESULT: Met

QUERY: Item C=CC(=O)N1CCC(Oc2cc3c(Nc4ccc(Cl)c(Cl)c4F)ncnc3cc2OC)CC1 [poziotinib, reference compound] with pIC50 of 8 or above?
RESULT: Met

QUERY: Item C=CC(=O)Nc1cc2c(Nc3ccc(F)c(Cl)c3)ncnc2cc1OCCCN1CCC(N2CCN(CCCCCCSc3cccc4c3CN(C3CCC(=O)NC3=O)C4=O)CC2)CC1 (stereo not shown) with pIC50 of 8 or above?
RESULT: Met

QUERY: Item C=CC(=O)Nc1cc2c(Nc3ccc(F)c(Cl)c3)ncnc2cc1OCCCN1CCN(C(=O)CSc2cccc3c2CN(C2CCC(=O)NC2=O)C3=O)CC1 (stereo not shown) with pIC50 of 8 or above?
RESULT: Met

QUERY: Item C=CC(=O)Nc1cc2c(Nc3ccc(F)c(Cl)c3)ncnc2cc1OCCCN1CCN(C(=O)CCCCCSc2cccc3c2CN(C2CCC(=O)NC2=O)C3=O)CC1 (stereo not shown) with pIC50 of 8 or above?
RESULT: Not met

QUERY: Item C=CC(=O)Nc1cc2c(Nc3ccc(F)c(Cl)c3)ncnc2cc1OCCCN1CCN(C(=O)CCCCSc2cccc3c2CN(C2CCC(=O)NC2=O)C3=O)CC1 (stereo not shown) with pIC50 of 8 or above?
RESULT: Not met
